Data origin: the METLIN SMRT retention time set (Domingo-Almenara et al. 2019)

Attribute: RP-LC retention time
experiment: gradient 5% acetonitrile 3 min, to 50% in 2 min, to 85% in 15 min, held 3 min, 100 µL/min; settings: column: Zorbax Extend-C18 2.1 x 50 mm; eluents: water / acetonitrile, 0.1% formic acid
Write the number in s without appending the unit.

{"columns": ["compound", "readout units", "RP-LC retention time"],
 "data": [
  ["O=C(NCc1ccncc1)c1ccc(-c2ccc(N3CCSCC3)nc2)cc1", "s", 574]
]}

Request the reported RP-LC retention time associated with `COCCNC(=O)C(=O)NCC1(c2ccc(F)cc2)CCOCC1`
676

Which RP-LC retention time reading was recorded for the compound CCN1CCCC1CN(CC(=O)N1CCNCC1)S(=O)(=O)c1cc(C)c(C)cc1C (stereo not given) ?
588

###

test: gradient 5% acetonitrile 3 min, to 50% in 2 min, to 85% in 15 min, held 3 min, 100 µL/min; settings: column: Zorbax Extend-C18 2.1 x 50 mm; eluents: water / acetonitrile, 0.1% formic acid
Under this convention, Y denotes RP-LC retention time strictly below 800 s and N denotes RP-LC retention time at or above 800 s.

{"columns": ["compound", "cat"],
 "data": [
  ["O=C(Cn1nc2n(c1=O)CCCC2)Nc1ccc2c(c1)OCO2", "Y"],
  ["O=C(c1ccc2cc[nH]c2c1)N1CCN(C(=O)c2nnn3c2COC(c2ccccc2)C3)CC1 (stereo not given)", "Y"],
  ["CC(=O)c1c(C)n(CC(=O)NCc2cc3c(cc2C)OCCCO3)c2ccccc12", "N"]
]}

// next entry
Would you kindly verify if RP-LC retention time of `COc1ccc(-c2noc(Cn3ccnc3)n2)cc1OC` is strictly less than 800 s?
Y

###

// RP-LC retention time lookup, one value per entry
test: gradient 5% acetonitrile 3 min, to 50% in 2 min, to 85% in 15 min, held 3 min, 100 µL/min; conditions: column: Zorbax Extend-C18 2.1 x 50 mm; eluents: water / acetonitrile, 0.1% formic acid

{"columns": ["compound", "RP-LC retention time"],
 "data": [
  ["Cc1nc(-n2cccc2)sc1C(=O)Nc1ccc(-c2cn3c(n2)SCC3)cc1", "627 s"],
  ["CCN(CC)CCNC(=O)c1c(-c2ccccc2)c(-c2ccccc2)nn(C)c1=O", "646 s"],
  ["CCn1cc(C(=O)Nc2ccc(F)c(C)c2)c2cccnc21", "896 s"]
]}

Entry `Cc1ccc(Nc2nc(N)nc(CN3CCN(c4ccccn4)CC3)n2)cc1` : reported RP-LC retention time = ?
590 s

###

assay: gradient 5% acetonitrile 3 min, to 50% in 2 min, to 85% in 15 min, held 3 min, 100 µL/min; conditions: column: Zorbax Extend-C18 2.1 x 50 mm; eluents: water / acetonitrile, 0.1% formic acid
property: RP-LC retention time (s)
Answer with a number only, understood to be in s.

Consider the compound `Nc1cc(C2CCN(C(=O)Nc3ccccc3Cl)CC2)no1` and give its measured RP-LC retention time.
698

###

experiment: gradient 5% acetonitrile 3 min, to 50% in 2 min, to 85% in 15 min, held 3 min, 100 µL/min; details: column: Zorbax Extend-C18 2.1 x 50 mm; eluents: water / acetonitrile, 0.1% formic acid
Each record's class is read off its RP-LC retention time using these ranges: LOW: < 700 s; MID: ≥ 700 s and < 800 s; HIGH: ≥ 800 s

Example cases with answers are listed next.
{"columns": ["compound", "cat"],
 "data": [
  ["CCOc1ccc(S(=O)(=O)N2CCC3(CC2)c2nccn2CCN3C)cc1", "LOW"],
  ["O=C(Nc1ccc2c(c1)C(=O)Nc1ccccc1O2)c1ccc2nsnc2c1", "MID"],
  ["Cc1ccccc1N1C(=O)CN(S(=O)(=O)c2ccccc2)CC1(C)C(=O)NCc1ccc(F)cc1 (stereo not drawn)", "HIGH"],
  ["CCN(CCO)CCCOc1ccc2c(Nc3cc(CC(=O)Nc4cccc(F)c4)[nH]n3)ncnc2c1", "LOW"],
  ["COc1ccc(-n2nc3c(N4CCCC(C(=O)NC5CCCCC5)C4)nnc(C)c3c2C)cc1 (stereo not drawn)", "MID"],
  ["O=C(NCc1ccccc1C(F)(F)F)C1CCCN(c2ncnc3c2oc2ccccc23)C1 (stereo not drawn)", "HIGH"],
  ["COc1ccc(C(=O)Nc2ccc3nc(N4CCN(CCC#N)CC4)cc(C(=O)O)c3c2)cc1", "LOW"],
  ["CC(C)C(=O)Nc1ccc(C2(C(=O)Nc3ccc(N4CCOCC4)cc3)CCCCC2)cc1", "HIGH"],
  ["CCn1cc2c3c(cccc31)CN(C(=O)Nc1ccc(OC)c(Cl)c1)CC2", "HIGH"],
  ["Cc1cccc(NS(=O)(=O)c2cc3c(s2)CCN(C(=O)C2CCC2)C3)c1C", "HIGH"]
]}

Determine which band this compound sits in: `COc1ccc(C(=O)Nc2nnc(SCc3nnc(-c4ccc5c(c4)OCO5)o3)s2)cc1OC`
HIGH

Classify this compound: O=C(NCC1CCCO1)C(=O)Nc1ccc(OC(F)(F)F)cc1 (stereo not drawn)
HIGH
